List of IC50 values.
- Tested system: human RORγt LBD (Homo sapiens)
- Sequence (P51449 258-518): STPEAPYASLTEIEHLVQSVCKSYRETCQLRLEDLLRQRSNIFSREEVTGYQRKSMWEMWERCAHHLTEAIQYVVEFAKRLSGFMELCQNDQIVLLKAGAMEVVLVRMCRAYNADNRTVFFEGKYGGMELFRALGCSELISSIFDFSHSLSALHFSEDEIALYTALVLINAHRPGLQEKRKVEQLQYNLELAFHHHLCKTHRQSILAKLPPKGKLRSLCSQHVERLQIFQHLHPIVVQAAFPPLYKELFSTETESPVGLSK
- Test summary: RORγt (LBD) Reporter Assay (GAL4 luciferase, HEK293T cells)
- Condition info: compounds for 24 hours

Look over these answered cases.
INSERT INTO measurements (compound, tested_system, meas_value) VALUES
  ('Cc1ncc(C(O)c2ccc3nc(N4CCC4)c(Cc4ccc(C(F)(F)F)cc4)c(Cl)c3c2)n1C (single isomer, unassigned) [Example 22c]', 'human RORγt LBD (Homo sapiens)', '~0.4 µM'),
  ('OC(c1ccc(Cl)cc1)c1ccc2nc(Cl)c(-c3ccccc3)c(Cl)c2c1 (stereo not shown) [Example 35]', 'human RORγt LBD (Homo sapiens)', '> 6 µM'),
  ('OC(c1ccc(Cl)cc1)c1ccc2nc(Cl)c(-c3ccccc3Cl)c(Cl)c2c1 (stereo not shown) [Example 26]', 'human RORγt LBD (Homo sapiens)', '~3 µM');

**Query** GET /values?readout=IC50&item= OC(c1ccncc1)c1ccc2nc(Cl)c(Cc3ccccc3)c(Cl)c2c1 (stereo not shown) [Example 24]
**Result** > 6 µM
